Assay: plasma levels by HPLC after intraperitoneal and oral administration to rats
Assay type: in vivo
Conditions: plasma, ip; rat, 10 mg/kg i.p., 8 h; read-out: Plasma level
Method: We give hereinafter in Table 2 the haematic levels of compound (h) as measured in plasma by HPLC. Each value is the average of three tested rats. More precisely in FIG. 1 the plasma levels in rats versus the time, are reported, after i.p. administration of 10 mg/kg and 25 mg/kg of compound (h), while in FIG. 2 the plasma levels are reported of compound (h) in rats, versus the time, after oral administration of 25, 50 and 100 mg/kg of said compound.

compound | concentration at 8 h, ng/mL
CN1CCN(c2c(F)cc3c(=O)c(C(=O)O)cn4c3c2SCC4)CC1 [Compound (h)] | 1630

* * *

experiment: plasma levels by HPLC after intraperitoneal and oral administration to rats; assay type: in vivo; conditions: plasma, po; rat, 25 mg/kg os, 1 h; read-out: Plasma level

compound | unit-abbrev | concentration at 1 h
CN1CCN(c2c(F)cc3c(=O)c(C(=O)O)cn4c3c2SCC4)CC1 [Compound (h)] | ng/mL | 7300

* * *

assay: tissue levels by HPLC after oral administration to rats; type: in vivo; settings: liver; rat, 50 mg/kg oral, 4 h; read-out: Tissue level, liver

entry-smiles | unit-abbrev | concentration at 4 h
CN1CCN(c2c(F)cc3c(=O)c(C(=O)O)cn4c3c2SCC4)CC1 | µg/mL | 34.1

* * *

assay: tissue levels by HPLC after oral administration to rats; assay type: in vivo; conditions: heart; rat, 50 mg/kg oral, 0.5 h; read-out: Tissue level, heart
value-type: concentration at 0.5 h (ng/mL)

entry-smiles | unit-abbrev | experimental-value
CN1CCN(c2c(F)cc3c(=O)c(C(=O)O)cn4c3c2SCC4)CC1 | ng/mL | 20000

* * *

test: plasma levels by HPLC after intraperitoneal and oral administration to rats; format: in vivo; conditions: plasma, po; rat, 100 mg/kg os, 4 h; read-out: Plasma level

entry-smiles | concentration at 4 h / ng/mL
CN1CCN(c2c(F)cc3c(=O)c(C(=O)O)cn4c3c2SCC4)CC1 | 15900

* * *

experiment: plasma levels by HPLC after intraperitoneal and oral administration to rats; type: in vivo; details: plasma, po; rat, 100 mg/kg os, 15 h; read-out: Plasma level

entry-smiles | concentration at 15 h
CN1CCN(c2c(F)cc3c(=O)c(C(=O)O)cn4c3c2SCC4)CC1 | 6220 ng/mL

* * *

assay: plasma levels by HPLC after intraperitoneal and oral administration to rats; format: in vivo; conditions: plasma, po; rat, 25 mg/kg os, 2 h; read-out: Plasma level

compound | concentration at 2 h / ng/mL
CN1CCN(c2c(F)cc3c(=O)c(C(=O)O)cn4c3c2SCC4)CC1 [Compound (h)] | 5670

* * *

test: tissue levels by HPLC after oral administration to rats; assay type: in vivo; settings: heart; rat, 50 mg/kg oral, 8 h; read-out: Tissue level, heart
value-type: concentration at 8 h (ng/mL)

compound | value-type | experimental-value
CN1CCN(c2c(F)cc3c(=O)c(C(=O)O)cn4c3c2SCC4)CC1 [Compound (h)] | concentration at 8 h | 9930

* * *

experiment: tissue levels by HPLC after oral administration to rats; format: in vivo; conditions: heart; rat, 50 mg/kg oral, 2 h; read-out: Tissue level, heart

molecule | concentration at 2 h, ng/mL
CN1CCN(c2c(F)cc3c(=O)c(C(=O)O)cn4c3c2SCC4)CC1 [Compound (h)] | 21000

* * *

test: tissue levels by HPLC after oral administration to rats; assay type: in vivo; settings: liver; rat, 50 mg/kg oral, 0.5 h; read-out: Tissue level, liver

compound | unit-abbrev | concentration at 0.5 h
CN1CCN(c2c(F)cc3c(=O)c(C(=O)O)cn4c3c2SCC4)CC1 [Compound (h)] | µg/mL | 63.5

* * *

test: plasma levels by HPLC after intraperitoneal and oral administration to rats; assay type: in vivo; details: plasma; rat, deduced from Table 2; read-out: half-life time (converted)
value-type: half-life (min)

entry-smiles | unit-abbrev | experimental-value
CN1CCN(c2c(F)cc3c(=O)c(C(=O)O)cn4c3c2SCC4)CC1 | min | 600

* * *

assay: tissue levels by HPLC after oral administration to rats; format: in vivo; conditions: kidney; rat, 50 mg/kg oral, 8 h; read-out: Tissue level, kidney

molecule | unit-abbrev | concentration at 8 h
CN1CCN(c2c(F)cc3c(=O)c(C(=O)O)cn4c3c2SCC4)CC1 [Compound (h)] | ng/mL | 17800

* * *

tested on: Pseudomonas aeruginosa; experiment: MIC in agar, Pseudomonas aeruginosa; assay type: cell-based; settings: Isosensitest agar, 10^4 CFU, 24 h, 37° C., read-out: MIC, B = Pseudomonas aeruginosa
value-type: MIC (mg/L)

compound | system-name | unit-abbrev | qual | experimental-value
O=C(O)c1cn2c3c(c(N4CCCC4)c(F)cc3c1=O)[S+]([O-])CC2 (stereo not drawn) [(e)] | Pseudomonas aeruginosa | mg/L | > | 50
O=C(O)c1cn2c3c(c(N4CCCC4)c(Cl)cc3c1=O)SCC2 [Comparison (d), reference compound] | Pseudomonas aeruginosa | mg/L | > | 50
O=C(O)c1cn2c3c(c(N4CCCC4)c(F)cc3c1=O)S(=O)(=O)CC2 | Pseudomonas aeruginosa | mg/L | > | 50
O=C(O)c1cn2c3c(c(Cl)c(F)cc3c1=O)SCC2 | Pseudomonas aeruginosa | mg/L | > | 25
CC1CSc2c(Cl)c(F)cc3c(=O)c(C(=O)O)cn1c23 (stereo not drawn) | Pseudomonas aeruginosa | mg/L | = | 25
O=C(O)c1cn2c3c(c(Cl)c(Cl)cc3c1=O)SCC2 [Comparison (b), reference compound] | Pseudomonas aeruginosa | mg/L | > | 50
CC1CSc2c(N3CCNCC3)c(F)cc3c(=O)c(C(=O)O)cn1c23 (stereo not drawn) [(r)] | Pseudomonas aeruginosa | mg/L | = | 12.5
CC1CN(c2c(F)cc3c(=O)c(C(=O)O)cn4c3c2SCC4)CC(C)N1 (stereo not drawn) | Pseudomonas aeruginosa | mg/L | = | 100
O=C(O)c1cn2c3c(c(N4CCN(CC(F)(F)F)CC4)c(F)cc3c1=O)SCC2 | Pseudomonas aeruginosa | mg/L | > | 50
CC1CSc2c(N3CCN(C)CC3)c(Cl)cc3c(=O)c(C(=O)O)cn1c23 (stereo not drawn) [Comparison (q), reference compound] | Pseudomonas aeruginosa | mg/L | > | 12.5
O=C(O)c1cn2c3c(c(N4CCCC4)c(F)cc3c1=O)SCC2 | Pseudomonas aeruginosa | mg/L | = | 3.12
CN1CCN(c2c(F)cc3c(=O)c(C(=O)O)cn4c3c2SCC4)CC1 | Pseudomonas aeruginosa | mg/L | > | 50
O=C(O)c1cn2c3c(c(N4CCN(C(=O)C(F)(F)F)CC4)c(F)cc3c1=O)SCC2 | Pseudomonas aeruginosa | mg/L | = | 12.5
O=C(O)c1cn2c3c(c(N4CCNCC4)c(F)cc3c1=O)SCC2 | Pseudomonas aeruginosa | mg/L | = | 12.5
CC1CSc2c(N3CCN(C)CC3)c(F)cc3c(=O)c(C(=O)O)cn1c23 (stereo not drawn) | Pseudomonas aeruginosa | mg/L | = | 50

* * *

assay: plasma levels by HPLC after intraperitoneal and oral administration to rats; type: in vivo; details: plasma, ip; rat, 10 mg/kg i.p., 4 h; read-out: Plasma level

entry-smiles | concentration at 4 h [µg/mL]
CN1CCN(c2c(F)cc3c(=O)c(C(=O)O)cn4c3c2SCC4)CC1 | 1.83

* * *

experiment: plasma levels by HPLC after intraperitoneal and oral administration to rats; assay type: in vivo; settings: plasma, po; rat, 50 mg/kg os, 2 h; read-out: Plasma level
value-type: concentration at 2 h

entry-smiles | experimental-value
CN1CCN(c2c(F)cc3c(=O)c(C(=O)O)cn4c3c2SCC4)CC1 | 9950 ng/mL

* * *

Test: plasma levels by HPLC after intraperitoneal and oral administration to rats
Assay type: in vivo
Details: plasma, po; rat, 100 mg/kg os, 1 h; read-out: Plasma level
Experimental: We give hereinafter in Table 2 the haematic levels of compound (h) as measured in plasma by HPLC. Each value is the average of three tested rats. More precisely in FIG. 1 the plasma levels in rats versus the time, are reported, after i.p. administration of 10 mg/kg and 25 mg/kg of compound (h), while in FIG. 2 the plasma levels are reported of compound (h) in rats, versus the time, after oral administration of 25, 50 and 100 mg/kg of said compound.

molecule | concentration at 1 h (ng/mL)
CN1CCN(c2c(F)cc3c(=O)c(C(=O)O)cn4c3c2SCC4)CC1 [Compound (h)] | 20600

* * *

assay: preliminary pharmacokinetic tests in dogs, oral; format: in vivo; settings: plasma, po; dog, 20 mg/kg per os; read-out: peak plasma level

compound | Cmax [ng/mL]
CN1CCN(c2c(F)cc3c(=O)c(C(=O)O)cn4c3c2SCC4)CC1 [Compound (h)] | 8000

Values from patent US4684647A
